The reader will find reported Fold increase for EAAT2, 4 h values listed item by item below.
System: EAAT2
assayName: EAAT2 protein levels in PA-EAAT2 cells by Western blot
Format: cell-based, human
assayConditions: compound 10 μM, 4 h incubation, PA-EAAT2 cells, relative to DMSO controls; na = not active
Reply with the number and its unit after it.

Examples with answers:
# structureString, Fold increase for EAAT2, 4 h
rows = [
    ("Cc1ccccc1CSc1ccc(-c2ccccn2)nn1", "1.7 ± 0.1 fold"),
    ("Clc1ccccc1CCSc1ccc(-c2ccccn2)nn1", "1.7 ± 0.2 fold"),
    ("c1ccc(CSc2ccc(-c3ccccn3)nn2)cc1", "1.3 ± 0.2 fold"),
    ("Cc1ccccc1CSc1ccc(-c2ccccn2)cn1", "1.3 ± 0.6 fold"),
]

The value of Fold increase for EAAT2, 4 h measured for the compound `Cc1ccc(-c2ccc(SCc3c(F)cccc3Cl)nn2)cc1` turned out to be 1.2 ± 0.2 fold

Value source: patent US9447075B2
